// values below are reported %Inh
System: CIT
Conditions: concentration: 1 μM, replicates: in singlicate; n = 1;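 note: KINOMEscan kinase panel screen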
Write the number in % without appending the unit.

CN(c1ccc(NC(=O)Nc2cccc(Cl)c2)cc1)c1ccnc(N)n1.Cl [GW830707]
9
COC(=O)Nc1nc2cc(Oc3ccc(NC(=O)Nc4cccc(SC)c4)cc3)ccc2[nH]1.Cl [GW697999]
98
Nc1cccc(-c2ccc3c(N)n[nH]c3c2)c1 [GSK2193613]
30
COc1cc(Nc2nccc(N3CCC(NC(=O)Nc4ccc5c(c4)OCO5)C3)n2)cc(OC)c1OC (stereo not drawn) [GSK1379766]
0
Cc1cccc(Nc2nc(NCCN)ncc2C(N)=O)c1 [GSK1292139]
80

For Cc1ccc(Nc2ccnc(Nc3ccc(C)c(F)c3)n2)cc1O.Cl [GW582868] the compound record lists %Inh as 28

Kindly note the recorded %Inh for CCn1cnc2c(NCc3ccccc3)ncnc21 [SKF-96418] , which is 16

The reported %Inh of the compound Cc1cc(-c2c(-c3ccc(F)cc3)ncn2CCCN2CCOCC2)nc(N)n1 [SB-222517] was 2

The recorded %Inh for entry Cc1nn2c(=O)cc(N3CCO[C@H](C)C3)nc2n1Cc1cccc(Cl)c1Cl [GSK2373693] equals 21

Documented %Inh of Fc1cc(Cl)ccc1Nc1ccnc2cc(-c3ccc(CN4CCOCC4)o3)ccc12 [GW560109] : 43

So for COc1ccc(C)c(Nc2ccnc(Nc3ccc(-c4cnc[nH]4)cc3)n2)c1.Cl [GW784041] , the logged %Inh turned out to be 0

The recorded %Inh for NCCC(NC(=O)c1cc(Br)c(-c2ccnc3[nH]ccc23)s1)c1ccccc1.O=C(O)C(F)(F)F.O=C(O)C(F)(F)F (stereo not drawn) [GSK1307810] is 98.5

====

Parameter: %Inh. Scope: all listed entries.
Test system: PIK3CG
Conditions: concentration: 1 μM, replicates: in singlicate; n = 1

The examples below pair each entry with its known result.
Cc1cc(-c2c(-c3ccc(F)cc3)ncn2CCCN2CCOCC2)nc(N)n1 [SB-222517]
36%
CC(C)c1nc(-c2ccc(F)c(NS(=O)(=O)c3c(F)cccc3F)c2)c(-c2ccnc(Nc3ccc(N4CCOCC4)nc3)n2)s1 [GSK1804250]
0%
Cc1ccc(-c2ccc3occ(-c4ccc(S(C)=O)cc4)c3c2)nn1 (stereo not shown)
8%
Cc1cc(-c2ccnc(Nc3cccc(C#N)c3)n2)cc(C)c1O [GSK1440913]
67%
CN(c1ccc(F)c(NC(=O)c2cccc(OC(C)(C)C#N)c2Cl)c1)c1ccc2nc(NC(=O)C3CC3)sc2n1
5%
O=C(Nc1c(F)cccc1F)c1cc(C(=O)c2ccccc2F)c[nH]1 [GSK1326180]
0%
CC(C)(C)c1ccc(C(=O)Nc2cn3cc(-n4ccnc4)ccc3n2)cc1
4%
COc1cccc(CC(=O)N2CCc3cc(-c4cn(C)c5ncnc(N)c45)ccc32)c1 [GSK2608899]
27%
COc1ccc(C)c(Nc2ccnc(Nc3ccc(-c4cnc[nH]4)cc3)n2)c1.Cl [GW784041]
11%
Nc1ncc(-c2ccc3nccc(-c4ccncc4)c3c2)cc1S(=O)(=O)N1CCCCC1 [GSK1693850]
100%

Record CCn1c(-c2nonc2N)nc2c(-c3ccccc3)ncc(OCCCN)c21.O=C(O)C(F)(F)F.O=C(O)C(F)(F)F [GSK260205] , field %Inh: 0%

According to the records, this compound Cc1ccc(C)c(NC(=O)Nc2ccc(C)c(-c3ccc(C(=O)Nc4ccncc4)cc3)c2)c1 [GSK1398473] displays %Inh of 0%

====

Tested on: CASK
Settings: concentration: 1 μM, replicates: in singlicate; n = 1
Please note: YES applies when %Inh is 30% or greater, and NO applies otherwise.

A selection of reference data follows.
COc1cc(Nc2nccc(N3CCC(NC(=O)Nc4ccc5c(c4)OCO5)C3)n2)cc(OC)c1OC (stereo not drawn)
NO
c1ccc(Oc2ccc(Nc3ccnc4cc(-c5ccc(CN6CCCCC6)o5)ccc34)cc2)nc1
YES
CCNc1nccc(-c2c(-c3ccc(F)cc3)ncn2C2CCN(C)CC2)n1
NO
NCCC(NC(=O)c1cc(Br)c(-c2ccnc3[nH]ccc23)s1)c1ccccc1.O=C(O)C(F)(F)F.O=C(O)C(F)(F)F (stereo not drawn)
NO
Cc1ccc(C)c(NC(=O)Nc2ccc(C)c(-c3ccc(C(=O)Nc4ccncc4)cc3)c2)c1
NO

## Input %Inh >= 30% for "Cc1ccccc1CC(=O)N1CCc2cc(-c3cn(C)c4ncnc(N)c34)ccc21" ?
## Output NO

## Input Is it the case that "O=C1NC(=O)C(c2ccccc2Cl)=C1Nc1cccc(Cl)c1" has %Inh reaching or exceeding 30%?
## Output YES

## Input Is it the case that "CC(C)c1nc(-c2cccc(NS(=O)(=O)c3c(F)cccc3F)c2)c(-c2ccnc(Nc3ccc(N4CCOCC4)nc3)n2)s1.Cl" has %Inh reaching or exceeding 30%?
## Output YES

## Input Could you tell me if the measured %Inh of "Cc1ccc(NC(=O)c2ccc(Cl)c(Cl)c2)cc1-c1ccc(C(=O)Nc2ccncc2)cc1" reaches 30% or more?
## Output NO

## Input Check if %Inh >= 30% (inclusive). Item: "COC(=O)Nc1nc2ccc(Oc3ccc(CC(=O)Nc4cc(C(F)(F)F)ccc4F)cc3)cc2[nH]1"
## Output NO

## Input Check this molecule for %Inh at or above 30%: "CN(C)c1ncnc2nc[nH]c12"
## Output YES

## Input Please tell me: is the molecule "COc1ccc(C)c(Nc2ccnc(Nc3ccc(-c4cnc[nH]4)cc3)n2)c1.Cl" at or over 30% in terms of %Inh?
## Output NO

====

Recorded %Inh for the following compounds
System: p38-delta
Details: concentration: 1 μM, replicates: in singlicate; n = 1
Response body: numeric value in %, unit text excluded.

COc1cccc(C2=C(Nc3cccc(O)c3)C(=O)NC2=O)c1
45
Fc1cc(Cl)ccc1Nc1ccnc2cc(-c3ccc(CN4CCSCC4)o3)ccc12
36
O=C1NC(=O)C(c2ccccc2Cl)=C1Nc1cccc(Cl)c1
28
CN(c1ccc(F)c(NC(=O)c2cccc(OC(C)(C)C#N)c2Cl)c1)c1ccc2nc(NC(=O)C3CC3)sc2n1
0
CC(=O)Nc1cn2nc(Oc3cccc(NC(=O)c4cccc(C(F)(F)F)c4)c3)ccc2n1
0
CN(C)CCNS(=O)(=O)c1ccc(-c2ccnc3[nH]ccc23)cc1
39

Please turn your attention to the following entry.
The compound "Nc1ncc(-c2ccc3nccc(-c4ccncc4)c3c2)cc1S(=O)(=O)N1CCCCC1" showed %Inh equal to 36

====

Tested on: CSNK1E
Settings: concentration: 1 μM, replicates: in singlicate; n = 1
// label 0 strictly below 30% in %Inh; label 1 otherwise

Cl.O=C(Nc1ccc(Oc2ccc3[nH]c(NC(=O)c4ccco4)nc3c2)cc1)Nc1cc(C(F)(F)F)ccc1F [GW683134]
label 0

## Input Hello, I need to know if O=C(O)C(F)(F)F.O=c1[nH]ccc2nc(N[C@@H]3CCNC3)nc(Nc3cc(Cl)cc(Cl)c3)c12 [GSK2188764] has measured %Inh not below 30%. Thanks!
## Output label 1

## Input Entry Cc1ccc(-c2ccc3occ(-c4ccc(S(C)=O)cc4)c3c2)nn1 (stereo not drawn) : is its %Inh no less than 30%?
## Output label 0

## Input Quick check: does COc1cc(Nc2nccc(N3CCC(NS(=O)(=O)c4ccc(NC(C)=O)cc4)CC3)n2)cc(OC)c1OC [GSK1379825] have %Inh greater than or equal to 30%?
## Output label 0

## Input Does CCn1c(-c2nonc2N)nc2c(-c3ccccc3)ncc(OCCCN)c21.O=C(O)C(F)(F)F.O=C(O)C(F)(F)F [GSK260205] have a reported %Inh of at least 30%?
## Output label 1

====

Tested on: WNK1
Conditions: concentration: 1 μM, replicates: in singlicate; n = 1
Measurement name: %Inh (%)
The reply should be a number in %, with the unit left off.

Fc1cc(Cl)ccc1Nc1ccnc2cc(-c3ccc(CN4CCSCC4)o3)ccc12 [GW560106]
1
Cc1cc(-c2c(-c3ccc(F)cc3)ncn2CCCN2CCOCC2)nc(N)n1 [SB-222517]
0

Note to self: %Inh recorded for Cl.Cl.NC(CNC(=O)c1cc(Br)c(-c2ccnc3[nH]ccc23)s1)c1ccccc1 (stereo not shown) [GSK1322949] was 1

Entry O=C(O)C(F)(F)F.O=c1[nH]ccc2nc(N[C@@H]3CCNC3)nc(Nc3ccc4c(c3)S(=O)(=O)CC4)c12 [GSK2181306] — recorded %Inh = 0

Kindly note the recorded %Inh for COc1cc(Nc2nccc(N3CCC(NS(=O)(=O)c4ccc(NC(C)=O)cc4)CC3)n2)cc(OC)c1OC [GSK1379825] , which is 0

Item: COc1ccc(NC(=O)c2ccoc2)cc1-c1ccc(C(=O)NCC2CC2)cc1 [GW810437] | %Inh: 9

Looking up COC(=O)Nc1nc2cc(Oc3ccc(NC(=O)Nc4cccc(SC)c4)cc3)ccc2[nH]1.Cl [GW697999] , I found its %Inh recorded as 0

Please fill in: %Inh reported for CN1CCN(Cc2ccc(NC(=O)Nc3ccc(N(C)c4ccnc(Nc5ccc(CS(C)(=O)=O)cc5)n4)cc3)cc2)CC1.Cl [GW827654] = 36

Record summary for CN(C)CCOc1ccc(-c2cc(-c3ccc(Cl)c(O)c3)c(-c3ccncc3)[nH]2)cc1.Cl.Cl [SB-684387] : reported %Inh = 11

CNc1nccc(-c2ccc3c(N)n[nH]c3c2)n1 [GSK2206003] has a reported %Inh of 1
